# method: in vitro
# condition_details: human, liver microsomes
measurement_kind: log10(microsomal CLint) (log10 of the value in µL/min/mg)
A value of 2 here means microsomal CLint of 100 in µL/min/mg, since values are log10.

// known answers, use as guide
CS(=O)(=O)C1(c2cc(N3CCOCC3)nc(-c3cccc4[nH]ccc34)n2)CC1    1.05
O=C(C1CCN(c2nnc(-n3cccc3)s2)CC1)N1CCc2ccccc2C1    1.92

State the recorded log10(microsomal CLint) for this entry: N[C@@H]1CCCN(c2c(/C=C3\SC(=O)NC3=O)cccc2-c2ccncc2)C1
0.93

State the recorded log10(microsomal CLint) for this entry: Nc1ccc2nc(SCC(=O)NC3CCN(Cc4ccc(Cl)c(Cl)c4)CC3)sc2c1
1.77

State the recorded log10(microsomal CLint) for this entry: O=C(CC12CC3CC(CC(C3)C1)C2)Nc1cccc2c(=O)n(C(CO)CO)ccc12
1.62

State the recorded log10(microsomal CLint) for this entry: O=c1[nH]c2c(O)ccc([C@@H](O)CNCCc3cccc(CNCCc4ccccc4F)c3)c2s1
1.23

State the recorded log10(microsomal CLint) for this entry: Fc1cnc(Nc2ccccc2)nc1Nc1ccccc1
0.85

Reference source: ChEMBL document CHEMBL3301361
